The values you see were collected from ChEMBL document CHEMBL4715741.

- target.desc: Cathepsin B (Homo sapiens)
- assay.explanation: Inhibition of cathepsin B in human SH-SY5Y cells using RR-AMC as substrate by fluorescence microplate reader assay
- Type: cell-based
pIC50: −log10 of the molar value.
Listed here: items and their measured pIC50.
attribute.measured: pIC50

[[record]]
smiles_entry = "O=C(/C=C/c1ccc(O)c2ccccc12)c1ccc(O)cc1O"
attribute_measured = "pIC50"
readout_value = 4.89

[[record]]
smiles_entry = "COc1cc(/C=C/C=C/C(=O)c2ccc(O)cc2)ccc1O"
attribute_measured = "pIC50"
readout_value = 5.42

